I'd be grateful if you could share measured melting point for these entries.

Exercise: What value of melting point has been reported for the following compound? `CN1CCN(CNc2nc(OCc3ccc(F)cc3)ncc2F)CC1`
Solution: 125 to 126 °C

Exercise: What value of melting point has been reported for the following compound? C=C(C)COCC(C)C1CC=C2C3=C(CCC21C)C1(C)CCC(O)C(C)(C)C1CC3 (stereo not given)
Solution: 113 to 115 °C

Exercise: What value of melting point has been reported for the following compound? `CNc1cc(C(=O)Nc2c(C)cc(C(F)(C(F)(F)F)C(F)(F)F)cc2C)ccc1C#N`
Solution: 204 to 206 °C

Exercise: What value of melting point has been reported for the following compound? O=C1N(Cc2ccc(C(F)(F)F)o2)c2ccccc2C12COc1cc(NC3CCNC3)ccc12 (stereo not given)
Solution: 122 to 125 °C

Exercise: What value of melting point has been reported for the following compound? `COc1cc2c(cc1Br)-c1c(-c3cncs3)c3c(n1CC2)C(=O)N(C(C)(C)C)CCOC3`
Solution: 219 to 220 °C

Exercise: What value of melting point has been reported for the following compound? COc1cc(C=C(C(=O)NC2CCC(C)CC2)c2ccccc2)ccc1OC(C)=O (stereo not given)
Solution: 136 to 140 °C

Exercise: What value of melting point has been reported for the following compound? `Cc1nc2ccccc2cc1NC(=O)N1CCN(c2cc(Cl)cc(Cl)c2)CC1`
Solution: 247 to 249 °C

Exercise: What value of melting point has been reported for the following compound? `COC(=O)CCC(=O)Nc1cc(Cl)ccc1C(=O)OC`
Solution: 80 to 84 °C

Exercise: What value of melting point has been reported for the following compound? CCCCC(Oc1ccc(CCNS(=O)(=O)c2ccc(Cl)cc2)cc1)C(=O)O (stereo not given)
Solution: 138 to 139 °C

Exercise: What value of melting point has been reported for the following compound? CCCN(CCN1CCN(c2ccc3[nH]ccc3c2)CC1)C1CCc2ccc(O)cc2C1 (stereo not given)
Solution: 179 to 183 °C

Exercise: What value of melting point has been reported for the following compound? `CC(C)c1cc(S(=O)(=O)c2ccc(N)cc2)cc(N2CCCC2)n1`
Solution: 148 to 150 °C

Exercise: What value of melting point has been reported for the following compound? CC1(C)C2CC(=O)C(CCC(=O)O)C1C2 (stereo not given)
Solution: 45 °C

Exercise: What value of melting point has been reported for the following compound? `O=C(O)CCc1cccc(-c2nc(=O)c3ccc(F)cc3s2)n1`
Solution: 215 to 217 °C

Exercise: What value of melting point has been reported for the following compound? `Cc1c(-c2cc(F)cc(C(F)(F)F)c2)ccc2nc(N)nc(N)c12`
Solution: 225 to 226 °C

Exercise: What value of melting point has been reported for the following compound? CN1C2CCCC1CC(NC(=O)c1cccc3oc(-c4ccc(Cl)cc4)nc13)C2 (stereo not given)
Solution: 185 to 187 °C

Exercise: What value of melting point has been reported for the following compound? `CC(C)(C)c1cc(-c2nc3n(c2CN2CCOCC2)CCS3)cc(C(C)(C)C)c1O`
Solution: 231 to 233 °C

Exercise: What value of melting point has been reported for the following compound? CC1(C)Oc2cc3nonc3cc2C(N2CC(O)CCC2=O)C1O (stereo not given)
Solution: 178 to 182 °C

Exercise: What value of melting point has been reported for the following compound? `CCc1cc(SCc2cccc3sc(-c4ccc(C(F)(F)F)cc4)nc23)ccc1OCC(=O)O`
Solution: 89 to 92 °C

Exercise: What value of melting point has been reported for the following compound? `CNc1cc(-c2ccc(Cl)cc2)nn1C`
Solution: 112 °C

Exercise: What value of melting point has been reported for the following compound? CCCCC(C)(CC)C(O)C(Oc1ccc(-c2ccccc2)cc1)n1cncn1 (stereo not given)
Solution: 120 to 122 °C
